Data provenance: patent US10363257B2

Can you tell me IC50 for the items I'm about to list?
Biological target: Brd4 bromodomain 1 (BRD4(1)) (Homo sapiens, UniProt O60885)
Test: Inhibition of tetra-acetylated histone H4 binding to Brd4 bromodomain 1 (TR-FRET)
Conditions: tetra-acetylated histone H4 peptide, first bromodomain of Brd4

Requested read-out IC50, target or system Brd4 bromodomain 1 (BRD4(1)) (Homo sapiens, UniProt O60885), entry Cc1noc(C)c1-c1cnc2nc(C)n(Cc3ccc(Cl)s3)c2c1 [compound 77]
≤ 300 nM

How about this compound: Cc1noc(C)c1-c1cnc2nc(C)n(CC3CCC3)c2c1 [compound 193]
≤ 300 nM

How about this compound: Cc1noc(C)c1-c1cc(N)c2ncn(Cc3ccc(F)cc3)c2c1 [Example Compound 27]
≤ 300 nM

How about this compound: Cc1noc(C)c1-c1cnc2nc(NC3CCCC3)n(Cc3ccccc3)c2c1 [compound 214]
≤ 300 nM

How about this compound: Cc1noc(C)c1-c1cc(Br)c2nc(C)n(C(=O)c3ccccc3)c2c1 [compound 200]
300 to 3000 nM

How about this compound: Cc1noc(C)c1-c1cnc2c(c1)ncn2Cc1ccccn1 [Example Compound 46]
300 to 3000 nM

How about this compound: Cc1noc(C)c1-c1cnc2nc(C)n(Cc3ccc(F)cc3)c2c1 [Example Compound 58]
≤ 300 nM

How about this compound: Cc1noc(C)c1-c1cc(S(C)(=O)=O)c2nc(C)n(Cc3ccccc3)c2c1 [compound 168]
≤ 300 nM

How about this compound: COCCNc1nc2ncc(-c3c(C)noc3C)cc2n1Cc1ccccc1 [compound 167]
≤ 300 nM

###

Can you tell me pIC50 for the items I'm about to list?
Tested on: hIL-6 mRNA
Experiment: Inhibition of hIL-6 mRNA transcription in LPS-stimulated U937 cells
Format: cell-based
Settings: Homo sapiens, U-937; PMA-differentiated U937 cells, 1 h pretreatment, 1 ug/mL LPS stimulation, 3 h; read-out: IL-6 activity (Inhibition of hIL-6 mRNA Transcription)
pIC50: −log10 of the molar value.

Given Cc1noc(C)c1-c1cnc2nc(N3CCOCC3)n(CC3CCCC3)c2c1 , state its recorded pIC50.
≥ 6.52

How about this compound: Cc1noc(C)c1-c1cc([N+](=O)[O-])c2nc(C)n(CC3CC3)c2c1
5.52 to 6.52

How about this compound: Cc1noc(C)c1-c1cnc2nc(C)n(C(C)c3ccccc3)c2c1 (stereo not drawn)
≥ 6.52

How about this compound: Cc1noc(C)c1-c1cnc2nc(NC3CCOCC3)n(CC3CCC3)c2c1
5.52 to 6.52

How about this compound: Cc1noc(C)c1-c1cnc2ncn(Cc3ccc(Cl)cc3)c2c1
5.52 to 6.52

How about this compound: Cc1noc(C)c1-c1cnc2nc(C)n(Cc3ccc(C(N)=O)cc3)c2c1
4.52 to 5.52

How about this compound: Cc1noc(C)c1-c1ccc2c(c1)N(Cc1ccccc1)CC(=O)N2
5.52 to 6.52

How about this compound: Cc1noc(C)c1-c1cnc2nc(C)n(Cc3ccc(Cl)s3)c2c1
5.52 to 6.52

How about this compound: Cc1noc(C)c1-c1cnc2nc(NCCN3CCOCC3)n(Cc3ccccc3)c2c1
≥ 6.52

###

Can you tell me pIC50 for the items I'm about to list?
Test system: hIL-6 mRNA
Experiment: Inhibition of hIL-6 mRNA transcription in LPS-stimulated U937 cells
Assay type: cell-based
Settings: Homo sapiens, U-937; PMA-differentiated U937 cells, 1 h pretreatment, 1 ug/mL LPS stimulation, 3 h; read-out: IL-6 activity (Inhibition of hIL-6 mRNA Transcription)
pIC50: −log10 of the molar value.

Given CNc1nc2c([N+](=O)[O-])cc(-c3c(C)noc3C)cc2n1Cc1ccccc1 , state its recorded pIC50.
≥ 6.52

How about this compound: Cc1noc(C)c1-c1cc(N)c2nc(C)n([C@H](C)c3ccccc3)c2c1
≥ 6.52

How about this compound: Cc1noc(C)c1-c1cnc2c(c1)ncn2Cc1ccccn1
4.52 to 5.52

How about this compound: COc1ccc(Cn2c(=O)[nH]c3c([N+](=O)[O-])cc(-c4c(C)noc4C)cc32)cc1
5.52 to 6.52

How about this compound: Cc1noc(C)c1-c1ccc2c(n1)[nH]c(=O)n2Cc1ccccc1
4.52 to 5.52

How about this compound: Cc1noc(C)c1-c1cnc2c(C)nn(Cc3ccc(F)cc3)c2c1
5.52 to 6.52

How about this compound: Cc1noc(C)c1-c1cnc2[nH]c(=O)n(C(C)c3ccccc3)c2c1 (centres unmarked)
5.52 to 6.52

How about this compound: Cc1noc(C)c1-c1cc([N+](=O)[O-])c2nc(N3CCN(C)CC3)n(Cc3ccccc3)c2c1
5.52 to 6.52
